target.or.system: T1, canine OSMR on canine cells (canine, UniProt A0A8I3MI11 28-967)
T1 sequence: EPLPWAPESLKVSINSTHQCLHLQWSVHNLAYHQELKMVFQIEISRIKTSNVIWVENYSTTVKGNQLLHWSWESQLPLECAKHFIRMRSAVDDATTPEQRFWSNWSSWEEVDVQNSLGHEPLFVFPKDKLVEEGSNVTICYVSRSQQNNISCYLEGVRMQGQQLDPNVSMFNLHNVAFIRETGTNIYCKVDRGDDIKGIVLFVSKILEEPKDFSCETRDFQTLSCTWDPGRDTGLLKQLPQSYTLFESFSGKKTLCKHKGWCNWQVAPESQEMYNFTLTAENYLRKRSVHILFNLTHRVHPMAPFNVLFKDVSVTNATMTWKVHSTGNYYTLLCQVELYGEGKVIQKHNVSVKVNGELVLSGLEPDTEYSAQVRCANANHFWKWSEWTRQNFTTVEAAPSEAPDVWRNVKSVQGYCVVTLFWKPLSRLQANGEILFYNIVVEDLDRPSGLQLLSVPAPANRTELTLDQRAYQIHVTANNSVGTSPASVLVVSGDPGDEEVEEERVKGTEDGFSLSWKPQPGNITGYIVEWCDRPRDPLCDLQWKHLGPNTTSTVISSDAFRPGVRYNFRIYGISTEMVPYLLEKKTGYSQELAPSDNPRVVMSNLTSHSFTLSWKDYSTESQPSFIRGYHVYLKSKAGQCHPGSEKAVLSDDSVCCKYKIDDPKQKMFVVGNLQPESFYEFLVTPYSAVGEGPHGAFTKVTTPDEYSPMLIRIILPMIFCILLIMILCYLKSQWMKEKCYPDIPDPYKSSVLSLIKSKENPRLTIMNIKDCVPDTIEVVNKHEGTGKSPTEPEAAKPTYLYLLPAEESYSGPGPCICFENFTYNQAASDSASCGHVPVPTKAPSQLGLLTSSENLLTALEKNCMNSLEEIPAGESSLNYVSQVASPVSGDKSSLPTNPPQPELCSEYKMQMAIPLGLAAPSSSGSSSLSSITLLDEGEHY
test.name: cell-based or functional assay
Quick reference for IC50, inhibition of canine IL-31 pSTAT3 signaling, canine DH82 cells among some binders
experimental.endpoint: IC50, inhibition of canine IL-31 pSTAT3 signaling, canine DH82 cells (µg/ml)

binder="mouse: canine 10F07 chimera (antibody, V domains shown, Mouse variable domains on canine IgG constant regions; also called 10F07 (Mouse:Canine); mouse:dog chimera 10F07) VH: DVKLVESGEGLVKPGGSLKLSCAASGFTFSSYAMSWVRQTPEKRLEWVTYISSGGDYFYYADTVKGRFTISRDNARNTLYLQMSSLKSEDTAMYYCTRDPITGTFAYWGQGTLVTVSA VL: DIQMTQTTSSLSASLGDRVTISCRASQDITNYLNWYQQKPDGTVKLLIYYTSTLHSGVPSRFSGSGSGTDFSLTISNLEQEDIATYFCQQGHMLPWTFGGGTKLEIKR" quantitative_readout=0.05
binder="Mu_19F07 (antibody, V domains shown, Mouse hybridoma IgG) VH: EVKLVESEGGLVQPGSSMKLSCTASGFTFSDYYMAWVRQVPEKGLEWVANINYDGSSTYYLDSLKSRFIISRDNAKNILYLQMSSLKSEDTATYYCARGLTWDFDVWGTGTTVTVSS VL: DIVMTQSHKFMSPSVGDRVSITCKASQDVDTAVAWYQQKPGQSPKLLIYLASTRHTGVPDRFTGSGSGTDFTLTISNVQSEDLADYFCQQYSRFPLTFGAGTKLELK" quantitative_readout=0.07
binder="Mu_14C04 (antibody, V domains shown, Mouse hybridoma IgG) VH: EVQLQESGAELVKPGASVKISCKASGYAFSNYWMNWMKQRPGKGLEWIGQIYPGHVNTNYNGNFKDKATLTADKSSSTAYMQLSSLTSEDSAVYFCARSADNSGFVLFAYWGQGTLVTVS VL: DIVLTQSPASLAVSLGQRATISCRASKSVSTSGYSYLHWYQQKPGQPPKLLIFLASNLESGVPARFSGSGSGTDFTLNIHPVEEEDAATYYCQHSRELPLTFGAGTKLELK" quantitative_readout=5.65
